B1: HDV Ribozyme (parent)
chain: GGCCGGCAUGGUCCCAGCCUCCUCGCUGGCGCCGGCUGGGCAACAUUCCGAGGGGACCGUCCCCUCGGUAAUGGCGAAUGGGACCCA

Variants of: B1
experimentSummary: self-cleavage, relative activity (ratio to wild type); higher = more cleavage; co-transcriptional
# class assignment by measured self-cleavage: LOW = under 0.09, MID = from 0.09 up to 0.6, HIGH = 0.6 and over

Worked set:
>  <sequenceChain>
GGCCGUCAUGGUCCCAGCAUCCUCGCUGGCGCCGGCUGGGCAACAUUCCGAGGGGACCGUCCCCUCGGUAAUGGCGAAUGGGACCCA

>  <labelValue>
LOW

$$$$
>  <sequenceChain>
GGCCGGCAUGGUCCCAGCCUCCUCUCUGGCGCCGGCUGGGCAACAUUCCGAGGGGACCGUCCACUCGGUAAUGGCGAAUGGGACCCA

>  <labelValue>
LOW

$$$$
>  <sequenceChain>
GGCCGGCAUGGUCCCAGCCACCUCGCUGGCGCCGGCUGGGCAACAUUCCCAGGGGACCGUCCCCUCGGUAAUGGCGAAUGGGACCCA

>  <labelValue>
MID

$$$$

Query: Please let me know in which category the item `GGGCGGCAUGGUCCGAGCCUCCUCGCUGGCGCCGGCUGGGCAACAUUCCGAGGGGACCGUCCCCUCGGUAAUGGCGAAUGGGACCCA` belongs.
Result: MID

Query: Please let me know in which category the item `GGCCGGCAUGGUCCCAGCCUCCUCGCUGGCGCCGGCUGGGCAACAUUCCGAGGGGACCGUCCCCUCGGUAAUGGCGCAUGGGACGCA` belongs.
Result: MID

Query: Please let me know in which category the item `GGCCGGCAUGGUCCCAGCCUCCUCGCUGGCGCCGGCUGGGCAACAUUCCGAGGGGACCAACCCCUCGGUAAUGGCGAAUGGGACCCA` belongs.
Result: HIGH

Query: Please let me know in which category the item `GGCCGGCAUAGUCCCAGCCUCCUCGCUGGCGCCGGCUGGGCAACAUUCCGAGGGGACCGUCCCCUCGGUAAUGGCGAAUGGGACCUA` belongs.
Result: HIGH

Query: Please let me know in which category the item `GGCCGGCAUGGUCCCAGCCUCCUCGCUAGCGCCGGCUGGGCAACAUUCCGAGGGGACCGUCCCCUCGGUAAUGGGGAAUGGGACCCA` belongs.
Result: LOW

Query: Please let me know in which category the item `GGCCGGCAUGGUCCCAGCCUCCUCGCUGGCGCCGGCUGGGCAACAUUCCGAGGGGACCGACCCCUCGGUAAUGGCGGAUGGGACCCA` belongs.
Result: HIGH
